Biological target: recombinant T. brucei hexokinase 1 (rTbHK1) (Trypanosoma brucei, UniProt Q38C42)
Assay: biochemical
Assay type: biochemical
Recorded pIC50 by entry
Reminder that pIC50 means the negative base-10 logarithm of the concentration expressed in mol/L.

For orientation, consider the following solved cases.
| structure.notation | metric.name | reported.measurement |
| --- | --- | --- |
| CCc1cc(C(=O)O)c(NC(=O)c2ccc(C(C)(C)C)cc2)cc1Cl | pIC50 | 5.13 |
| CC(C)(C)c1ccc(C(=O)Nc2cc(Cl)c(-c3cccc(Cl)c3)cc2C(=O)O)cc1 | pIC50 | 5.57 |
| Cc1cc(C(=O)O)c(NC(=O)c2ccc(C(C)(C)C)cc2)cc1Cl | pIC50 | 5.57 |
| CC(C)(C)c1ccc(C(=O)Nc2cc(Cl)c(-c3cccs3)cc2C(=O)O)cc1 | pIC50 | 6.33 |
| CC(C)(C)c1ccc(C(=O)Nc2cc(Cl)c(-c3ccsc3)cc2C(=O)O)cc1 | pIC50 | 6.48 |
| CC(C)(C)c1ccc(C(=O)Nc2cc(Cl)c(-c3ccc[nH]3)cc2C(=O)O)cc1 | pIC50 | 6.30 |
| CN(C)c1cccc(-c2cc(C(=O)O)c(NC(=O)c3ccc(C(C)(C)C)cc3)cc2Cl)c1 | pIC50 | 5.40 |
| CC(C)(C)c1ccc(C(=O)Nc2cc(Cl)c(-c3nnn[nH]3)cc2C(=O)O)cc1 | pIC50 | 6.85 |

Read the entry CC(C)(C)c1ccc(C(=O)Nc2cc(Cl)c(-c3ccc4c(c3)OCCO4)cc2C(=O)O)cc1 and write its reported pIC50.
6.22

Read the entry CC(C)(C)c1ccc(C(=O)Nc2cc(Cl)c(-c3ccco3)cc2C(=O)O)cc1 and write its reported pIC50.
6.38

----------
Molecular target: recombinant T. brucei hexokinase 1 (rTbHK1) (Trypanosoma brucei, UniProt Q38C42)
Experiment: biochemical
Format: biochemical
Conditions: read-out: rTbHK1 potency (IC50 ± SEM); average of n ≥ 3 experiments
metric.name: IC50 (µM)
Lab book: enter the figure in µM, no units written.

For orientation, consider the following solved cases.
| structure.notation | reported.measurement |
| --- | --- |
| CC(C)(C)c1ccc(C(=O)Nc2cc(Cl)c(C3CC3)cc2C(=O)O)cc1 | 6.7 |
| COc1ccccc1-c1cc(C(=O)O)c(NC(=O)c2ccc(C(C)(C)C)cc2)cc1Cl | 4.6 |
| CC(C)(C)c1ccc(C(=O)Nc2cc(Cl)c(-n3cccn3)cc2C(=O)O)cc1 | 2.8 |
| Cc1ccc(-c2cc(C(=O)O)c(NC(=O)c3ccc(C(C)(C)C)cc3)cc2Cl)cc1 | 2.78 |
| CC(C)(C)c1ccc(C(=O)Nc2cc(Cl)c(-n3cccc3)cc2C(=O)O)cc1 | 3 |
| CC(C)(C)c1ccc(C(=O)Nc2cc(Cl)c(-c3ccccc3F)cc2C(=O)O)cc1 | 2.08 |
| CC(C)(C)c1ccc(C(=O)Nc2cc(Cl)c(-c3ccc4c(c3)OCO4)cc2C(=O)O)cc1 | 3.9 |
| CC(C)(C)c1ccc(C(=O)Nc2cc(Cl)c(-c3ccoc3)cc2C(=O)O)cc1 | 0.51 |

Return reported IC50 for target or system recombinant T. brucei hexokinase 1 (rTbHK1) (Trypanosoma brucei, UniProt Q38C42), item CC(C)(C)c1ccc(C(=O)Nc2cc(Cl)c(-c3ccc(C(=O)O)cc3)cc2C(=O)O)cc1 .
3.5

Return reported IC50 for target or system recombinant T. brucei hexokinase 1 (rTbHK1) (Trypanosoma brucei, UniProt Q38C42), item CC(C)(C)c1ccc(C(=O)Nc2cc(Cl)c(-c3cccc(F)c3)cc2C(=O)O)cc1 .
4.6

Return reported IC50 for target or system recombinant T. brucei hexokinase 1 (rTbHK1) (Trypanosoma brucei, UniProt Q38C42), item COc1cccc(-c2cc(C(=O)O)c(NC(=O)c3ccc(C(C)(C)C)cc3)cc2Cl)c1 .
0.88

Return reported IC50 for target or system recombinant T. brucei hexokinase 1 (rTbHK1) (Trypanosoma brucei, UniProt Q38C42), item CC(C)(C)c1ccc(C(=O)Nc2cc(Cl)c(-c3ccc(F)cc3)cc2C(=O)O)cc1 .
2.44

Return reported IC50 for target or system recombinant T. brucei hexokinase 1 (rTbHK1) (Trypanosoma brucei, UniProt Q38C42), item COc1ccc(-c2cc(C(=O)O)c(NC(=O)c3ccc(C(C)(C)C)cc3)cc2Cl)cc1 .
1.72

----------
Experiment: PAMPA permeability
Settings: pH 7.4, PAMPA permeability (Pe), donor pH 7.4, acceptor pH 7.4
metric.name: Papp (×10⁻⁶ cm/s)
Lab book: enter the figure in ×10⁻⁶ cm/s, no units written.

Read the entry CC(C)(C)c1ccc(C(=O)Nc2cc(Cl)c(-c3ccccc3)cc2C(=O)O)cc1 and write its reported Papp.
49

----------
Test: PAMPA permeability
Settings: PAMPA permeability (Pe), donor pH 6.2, acceptor pH 7.4
metric.name: Papp (×10⁻⁶ cm/s)
Lab book: enter the figure in ×10⁻⁶ cm/s, no units written.

Read the entry CC(C)(C)c1ccc(C(=O)Nc2cc(Cl)c(-c3ccccc3)cc2C(=O)O)cc1 [Compound 4f] and write its reported Papp.
1.6

----------
Assay: Plasma protein binding
Format: in vitro ADME
Conditions: mouse, mouse species, 1 μM
metric.name: fraction unbound

Read the entry CC(C)(C)c1ccc(C(=O)Nc2cc(Cl)c(-c3ccccc3)cc2C(=O)O)cc1 and write its reported fraction unbound.
0.01

----------
Molecular target: human HK 4 (human glucokinase, hGlk) (Homo sapiens, UniProt P35557)
Sequence (P35557 1-465): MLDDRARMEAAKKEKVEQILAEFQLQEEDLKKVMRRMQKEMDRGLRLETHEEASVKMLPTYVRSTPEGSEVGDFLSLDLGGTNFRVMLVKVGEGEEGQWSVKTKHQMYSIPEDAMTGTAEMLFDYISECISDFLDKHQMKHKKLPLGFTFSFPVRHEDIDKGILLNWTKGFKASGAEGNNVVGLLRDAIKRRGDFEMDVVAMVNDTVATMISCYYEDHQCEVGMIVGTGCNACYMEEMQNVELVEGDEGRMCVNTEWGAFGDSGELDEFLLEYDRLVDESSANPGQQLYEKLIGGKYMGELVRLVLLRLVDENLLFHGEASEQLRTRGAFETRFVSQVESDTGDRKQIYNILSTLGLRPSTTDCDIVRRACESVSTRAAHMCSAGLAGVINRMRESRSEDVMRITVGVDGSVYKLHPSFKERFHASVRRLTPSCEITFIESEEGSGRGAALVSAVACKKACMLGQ
Test: Specificity assay against human glucokinase
Type: biochemical
Settings: read-out: % hGlk inhibition (10 μM)
metric.name: inhibition at 10 µM (%)
Lab book: enter the figure in %, no units written.

| structure.notation | inhibition at 10 µM (%) |
| --- | --- |
| Cc1cc(C(=O)O)c(NC(=O)c2ccc(C(C)(C)C)cc2)cc1Cl | 12.5 |
| CC(C)(C)c1ccc(C(=O)Nc2cc(Cl)c(-c3ccc[nH]3)cc2C(=O)O)cc1 | 6.1 |
| CC(C)(C)c1ccc(C(=O)Nc2cc(Cl)c(-c3ccco3)cc2C(=O)O)cc1 | 10.4 |
| CC(C)(C)c1ccc(C(=O)Nc2cc(Cl)c(-c3cccs3)cc2C(=O)O)cc1 | 12.5 |
| CC(C)(C)c1ccc(C(=O)Nc2cc(Cl)c(-c3cccc(Cl)c3)cc2C(=O)O)cc1 | 30.9 |
| CC(C)(C)c1ccc(C(=O)Nc2cc(Cl)c(-c3ccc4c(c3)OCCO4)cc2C(=O)O)cc1 | 26.6 |
| CC(C)(C)c1ccc(C(=O)Nc2cc(Cl)c(-c3ccccc3)cc2C(=O)O)cc1 | 35.2 |

Next, consider the following compound.
Read the entry CCc1cc(C(=O)O)c(NC(=O)c2ccc(C(C)(C)C)cc2)cc1Cl and write its reported inhibition at 10 µM.
0.7

----------
Molecular target: human HK 4 (human glucokinase, hGlk) (Homo sapiens)
Test: Specificity assay against human glucokinase
Format: biochemical
Settings: read-out: % hGlk inhibition (10 μM)
Recorded inhibition at 10 µM by entry
Lab book: enter the figure in %, no units written.

Read the entry CC(C)(C)c1ccc(C(=O)Nc2cc(Cl)c(-c3ccsc3)cc2C(=O)O)cc1 [Compound 4v] and write its reported inhibition at 10 µM.
24.8

Read the entry CC(C)(C)c1ccc(C(=O)Nc2cc(Cl)c(-c3nnn[nH]3)cc2C(=O)O)cc1 [Compound 4ee] and write its reported inhibition at 10 µM.
1.6

Read the entry CN(C)c1cccc(-c2cc(C(=O)O)c(NC(=O)c3ccc(C(C)(C)C)cc3)cc2Cl)c1 [Compound 4m] and write its reported inhibition at 10 µM.
43.7

----------
Biological target: recombinant T. brucei hexokinase 1 (rTbHK1) (Trypanosoma brucei)
Assay: biochemical
Assay type: biochemical
Settings: read-out: rTbHK1 potency (IC50 ± SEM); average of n ≥ 3 experiments
metric.name: IC50

For orientation, consider the following solved cases.
| molecule | IC50 |
| --- | --- |
| CN(C)c1ccc(-c2cc(C(=O)O)c(NC(=O)c3ccc(C(C)(C)C)cc3)cc2Cl)cc1 [Compound 4l] | > 10 µM |
| CC(C)(C)c1ccc(C(=O)Nc2cc(Cl)c(-n3ccnc3)cc2C(=O)O)cc1 [Compound 4dd] | > 10 µM |
| CC(C)(C)c1ccc(C(=O)Nc2cc(Cl)c(-c3ccncc3)cc2C(=O)O)cc1 [Compound 4s] | > 10 µM |

Read the entry Cn1nnc(-c2cc(C(=O)O)c(NC(=O)c3ccc(C(C)(C)C)cc3)cc2Cl)n1 [Compound 4ff] and write its reported IC50.
> 10 µM

Measured values drawn from paper PMC5808564 for this set.
